For each entry below, report its pKd value.
# Target entity: T1, mfPRLR.mmh (soluble monomeric macaca fascicularis PRLR) (macaca fascicularis)
# T1 construct: soluble monomeric PRLR protein; also called macaca fascicularis (mf) PRLR.mmh; monkey PRLR
# T1 chain: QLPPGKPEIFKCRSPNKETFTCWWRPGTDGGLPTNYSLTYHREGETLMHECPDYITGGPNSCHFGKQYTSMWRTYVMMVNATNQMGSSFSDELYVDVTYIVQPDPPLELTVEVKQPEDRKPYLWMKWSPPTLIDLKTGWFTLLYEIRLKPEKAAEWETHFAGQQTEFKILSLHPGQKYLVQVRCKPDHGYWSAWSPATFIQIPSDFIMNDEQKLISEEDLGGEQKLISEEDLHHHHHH
# Assay text: SPR (Biacore), antibody capture, 37 C
// pKd: -log10(molar conc.)

Note down pKd recorded for H1H6792P (antibody, human IgG1, V domains shown, human IgG1 Fc (H1H)) VH: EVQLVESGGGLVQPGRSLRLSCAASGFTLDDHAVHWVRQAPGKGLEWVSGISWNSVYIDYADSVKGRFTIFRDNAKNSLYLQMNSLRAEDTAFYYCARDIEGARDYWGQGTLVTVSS VL: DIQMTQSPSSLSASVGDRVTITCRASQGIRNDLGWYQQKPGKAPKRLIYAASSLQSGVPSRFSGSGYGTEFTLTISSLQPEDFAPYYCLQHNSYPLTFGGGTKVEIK
8.03

Note down pKd recorded for H1H6804P (antibody, human IgG1, V domains shown, human IgG1 Fc (H1H)) VH: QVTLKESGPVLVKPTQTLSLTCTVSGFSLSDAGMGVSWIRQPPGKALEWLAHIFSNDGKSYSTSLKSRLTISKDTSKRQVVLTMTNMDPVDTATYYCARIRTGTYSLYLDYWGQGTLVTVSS VL: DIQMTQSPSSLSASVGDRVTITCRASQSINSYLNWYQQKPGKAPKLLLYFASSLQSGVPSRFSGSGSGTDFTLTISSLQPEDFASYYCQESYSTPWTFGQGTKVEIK
8.03

Note down pKd recorded for H1H6975N (antibody, human IgG1, V domains shown, also called H2M6975N) VH: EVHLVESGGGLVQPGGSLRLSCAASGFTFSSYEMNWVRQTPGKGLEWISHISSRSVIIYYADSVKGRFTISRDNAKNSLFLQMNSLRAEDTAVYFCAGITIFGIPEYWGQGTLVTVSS VL: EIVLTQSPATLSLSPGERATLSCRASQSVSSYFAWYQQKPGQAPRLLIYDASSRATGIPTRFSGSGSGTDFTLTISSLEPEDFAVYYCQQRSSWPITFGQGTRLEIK
8.64

Note down pKd recorded for H1H6781P (antibody, human IgG1, V domains shown, human IgG1 Fc (H1H)) VH: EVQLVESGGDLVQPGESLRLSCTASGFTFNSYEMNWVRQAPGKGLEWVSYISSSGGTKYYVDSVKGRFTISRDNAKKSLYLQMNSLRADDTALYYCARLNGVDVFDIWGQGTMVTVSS VL: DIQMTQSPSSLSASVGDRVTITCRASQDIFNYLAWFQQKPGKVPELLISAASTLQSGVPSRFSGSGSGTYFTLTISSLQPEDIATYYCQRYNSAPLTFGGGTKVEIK
8.97

The measured values listed here are drawn from patent US20180185504A1.
